Reference source for all entries: the supplement of paper PMC10567573

B1: PLAGL1 (parent)
chain: DPNKMAFGCEECGKKYNTMLGYKR

# Variants of: B1
# ASSAY_PROTOCOL: protein stability index of a GFP-peptide fusion (GPS, HEK-293T) (PSI 1-6); higher = more stable;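 note: lentivirally expressed fusions sorted by FACS into six bins by GFP to DsRed ratio, PSI derived from sequencing read proportions per bin multiplied by bin number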
# SETTINGS: c terminus: a fixed tail appended
Would you kindly list protein stability index for each of these variants?
Answer as a number with no unit attached.

Task: GET /values?readout=protein stability index&item= DPNKMAFGCFECGKKYNTMLGYKR [E10F]
Result: 2.4

Task: Another variant: DPNKMAFGCENCGKKYNTMLGYKR [E11N]
Result: 2.52

Task: // same read-out, input: DPNKMAFTCEECGKKYNTMLGYKR [G8T]
Result: 3.12

Task: Another: DPNWMAFGCEECGKKYNTMLGYKR [K4W]
Result: 2.08

Task: Another variant to look at: DPNKMAFGCEQCGKKYNTMLGYKR [E11Q]
Result: 1.99

Task: Likewise for DPNKMAFGCEEVGKKYNTMLGYKR [C12V] ?
Result: 4.43

Task: Check DPNKMAFGCEECGKKYNTMLGYDR [K23D] too.
Result: 2.81

Task: And what about the variant DPNKMAFGCNECGKKYNTMLGYKR [E10N] ?
Result: 2.29

Task: Note, next up: DPNKMAFGCEECDKKYNTMLGYKR [G13D]
Result: 2.81

Task: Again, but for DPNKMAFGCEECGKKPNTMLGYKR [Y16P]
Result: 3.07

Task: Also, DLNKMAFGCEECGKKYNTMLGYKR [P2L] please.
Result: 2.15

Task: What about this variant? DPNKMAFGCEECKKKYNTMLGYKR [G13K]
Result: 2.04

Task: Can you check DPNKMAFGCEMCGKKYNTMLGYKR [E11M] next?
Result: 2.68

Task: Same again, this time with DPNEMAFGCEECGKKYNTMLGYKR [K4E]
Result: 3.3

Task: Field entry: DPNIMAFGCEECGKKYNTMLGYKR [K4I]
Result: 1.95

Task: Same again, this time with DPNKMEFGCEECGKKYNTMLGYKR [A6E]
Result: 3.09

Task: Proceed to DPNKMAFGCEECGKKYNTMLGRKR [Y22R]
Result: 3.33

Task: Lookup DPNKMAFGCEECGEKYNTMLGYKR [K14E]
Result: 3.44

Task: Try this variant too: DPNAMAFGCEECGKKYNTMLGYKR [K4A]
Result: 2.35

Task: For DPNKMAFGCEFCGKKYNTMLGYKR [E11F] then?
Result: 1.85

Task: Same read-out for DPNKMAFGCEECGKKYNTLLGYKR [M19L] ?
Result: 2.82

Task: Another variant to look at: DPNKMAFGCEECGKKYNTMLGYFR [K23F]
Result: 2.03
